- PROTOCOL DESCRIPTION: Phase 1a single ascending dose study: UV-4 in pooled urine, urinary recovery and renal clearance
- Type: in vivo, human
- ASSAY SETUP: both sexes, human, urine, po, 720 mg, 720 mg single oral dose; Geo Mean
MEASURE NAME: CL renal (mL/min)
Answer format: numeric, mL/min implied, no suffix.

The compound listed as "COCCCCCCCCCN1C[C@H](O)[C@@H](O)[C@H](O)[C@H]1CO" shows CL renal equal to 182

###

- PROTOCOL DESCRIPTION: Phase 1a single ascending dose study: UV-4 plasma concentrations and PK parameters (LC-MS/MS, noncompartmental)
- Format: in vivo
- ASSAY SETUP: both sexes, human, plasma, po, 360 mg, 360 mg single oral dose; median; read-out: tmax
MEASURE NAME: Tmax (min)
Answer format: numeric, min implied, no suffix.

The molecule listed as "COCCCCCCCCCN1C[C@H](O)[C@@H](O)[C@H](O)[C@H]1CO" shows Tmax equal to 30
